Origin of values: ChEMBL document CHEMBL4321783

Listed below: MIC values for each entry.
Tested on: Staphylococcus aureus
Experiment: Antibacterial activity against Staphylococcus aureus ATCC 29213 by broth microdilution method
Assay type: functional
Value expressed in µg/mL; do not type the unit.

COMPOUND	ASSAY METRIC	OBS VALUE
CC[C@H]1OC(=O)[C@H](C)C(=O)[C@H](C)[C@@H](O[C@@H]2O[C@H](C)C[C@H](N(C)C)[C@H]2O)[C@](C)(OC)C[C@@H](C)CN[C@H](C)[C@@H]2N(CCCCn3cc(-c4cccc(N)c4)nn3)C(=O)O[C@@]21C	MIC	0.5

[Q] Tell me the measured MIC of `CO[C@]1(C)C[C@@H](C)CN[C@H](C)[C@@H]2N(CCCCn3cc(-c4cccc(N)c4)nn3)C(=O)O[C@]2(C)[C@@H](CCF)OC(=O)[C@H](C)C(=O)[C@H](C)[C@H]1O[C@@H]1O[C@H](C)C[C@H](N(C)C)[C@H]1O` , please.
[A] 1

[Q] // repeat for `CC[C@H]1OC(=O)[C@@](C)(F)C(=O)[C@H](C)[C@@H](O[C@@H]2O[C@H](C)C[C@H](N(C)C)[C@H]2O)[C@](C)(OC)C[C@@H](C)C(=O)[C@H](C)[C@@H]2N(CC#CCn3cc(-c4cccc(N)n4)nn3)C(=O)O[C@@]21C` and report
[A] 0.06

[Q] What do we get for CC[C@H]1OC(=O)[C@H](C)[C@@H](O[C@H]2C[C@@](C)(OC)[C@@H](O)[C@H](C)O2)[C@H](C)[C@@H](O[C@@H]2O[C@H](C)C[C@H](N(C)C)[C@H]2O)[C@](C)(O)C[C@@H](C)C(=O)[C@H](C)[C@@H](O)[C@]1(C)O [ERYTHROMYCIN] ?
[A] 0.5
